assay: 0.1M Zinc Gluconate and 0.1M Amino Acid Solutions: pH and precipitation on adjusting pH to 7.0; type: physicochemical; settings: 0.1M zinc gluconate and 0.1M amino acid; pH adjusted to 7.0 with NaOH
reported_metric: Observations

[[record]]
test_smiles = "N[C@@H](Cc1ccccc1)C(=O)O"
reported_metric = "Observations"
recorded_value = "precipitates"

[[record]]
test_smiles = "N[C@@H](CO)C(=O)O"
reported_metric = "Observations"
recorded_value = "does not precipitate"

[[record]]
test_smiles = "C[C@@H](O)[C@H](N)C(=O)O"
reported_metric = "Observations"
recorded_value = "does not precipitate"

[[record]]
test_smiles = "N[C@@H](CS)C(=O)O"
reported_metric = "Observations"
recorded_value = "precipitates"


###

Each record here notes measured pH.
test: 0.1M Zinc Gluconate and 0.1M Amino Acid Solutions: pH and precipitation on adjusting pH to 7.0; assay type: physicochemical; details: 0.1M zinc gluconate and 0.1M amino acid solution, before adjustment
reported_metric: pH

[[record]]
compound = "CC[C@H](C)[C@H](N)C(=O)O [Isoleucine]"
recorded_value = 5.1

[[record]]
compound = "C[C@H](N)C(=O)O [Alanine]"
recorded_value = 5.1

[[record]]
compound = "N[C@@H](Cc1ccccc1)C(=O)O [Phenylalanine]"
recorded_value = 4.9

[[record]]
compound = "NC(=O)CC[C@H](N)C(=O)O [Glutamine]"
recorded_value = 5.0

[[record]]
compound = "NCCCC[C@H](N)C(=O)O [Lysine]"
recorded_value = 7.4

[[record]]
compound = "CC(C)C[C@H](N)C(=O)O [Leucine]"
recorded_value = 5.0

[[record]]
compound = "CC(C)[C@H](N)C(=O)O [Valine]"
recorded_value = 5.1

[[record]]
compound = "NC(=O)C[C@H](N)C(=O)O [Asparagine]"
recorded_value = 4.8

